Molecular target: Serine/threonine-protein kinase pim-3 (Homo sapiens)
experimental_endpoint: IC50 (nM)
Your answer is read as nM, so omit the unit and give the number.

# input Which value of IC50 has been reported for N[C@H]1C[C@@H](O)CN(c2ccncc2Nc2cccc3ccc(-c4c(F)cccc4F)nc23)C1 in the records?
# output 61
